target: T1, recombinant human CD3 epsilon/delta heterodimer (human, UniProt P07766 23-126; P04234 22-105); experiment: Octet BLI, mAb on FAB2G sensor, hCD3 E/D 200-50 nM; R^2 0.99
T1 construct: Recombinant protein in solution (200-50 nM) in the Octet assay; also called hCD3 E/D; human CD3E/D
T1 sequence (P07766 23-126, stated change not applied, chain 1 of 2): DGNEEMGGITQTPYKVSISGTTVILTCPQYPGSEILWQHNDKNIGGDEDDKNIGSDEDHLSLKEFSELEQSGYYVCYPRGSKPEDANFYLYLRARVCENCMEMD
T1 sequence (P04234 22-105, stated change not applied, chain 2 of 2): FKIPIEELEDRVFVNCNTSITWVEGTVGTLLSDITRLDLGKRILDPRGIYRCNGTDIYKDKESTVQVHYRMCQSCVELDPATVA
Label Y when Response is strictly below 1; otherwise label N.

Record excerpt, results attached:
- binder: "ABL-CD3-60 (antibody, V domains shown, Chimeric hybridoma mAb: human V, CH1, upper hinge; mouse middle hinge, CH2, CH3) VH: EVQLVESGGGLVKPGGSLRLSCAASGFTFSIYSMNWVRQAPGKGLEWVSSISSGSSYIYYADSVKGRFTISRDNAKSSLFLQMNSLRAEDTAVYYCAREKRELLFDYWGQGTLVTVSS VL: NFMLTQPHSVSESPGKTVTISCTRSSGSIASNYVQWYQQRPGSSPTTVIYEDNQRPSGVPDRFSGSIDRSSNSASLTISGLKTEDEADYYCQSYDSSNRVFGGGTKLTVL"
  discrete_label: "Y"
- binder: "ABL-CD3-25 (antibody, V domains shown, Chimeric hybridoma mAb: human V, CH1, upper hinge; mouse middle hinge, CH2, CH3) VH: EVHLVESGGGLVKPGGSLRLSCAASGFTFSSYSMNWVRQAPGKGLEWVSSISSSSTYIYYADSVKGRFTISRDNAKNSLYLQMNSLRAEDTAVYYCAREPRTLGMDYWGQGILVTVSS VL: NFMLTQPHSVSESPGKTVTISCTRSSGSIASNYVQWYQQRPGSSPTTVIYEDNHRPSGVPDRFSGSIDSSSNSASLTISGLKTEDEADYFCQSFDSSNRVFGGGTKLTVL"
  discrete_label: "N"
- binder: "ABL-CD3-20 (antibody, V domains shown, Chimeric hybridoma mAb: human V, CH1, upper hinge; mouse middle hinge, CH2, CH3) VH: EVQLVESGGGLVKPGGSLRLSCAASGLTFSTYSMNWVRQAPGKGLEWVSSISSSGSYVYYADSVKGRFTMSRDNAKNSLYLQMNSLRAEDTAVYYCARERRELLFDYWGQGTLVTVSS VL: NFMLTQPHSVSESPGKTVTISCTRSSGSIASNYVQWYQQRPGSSPTSVIYEDNQRPSGVPDRFSGSIDSSSNSASLTISGLKTEDEADYYCQSYDRSNRVFGGGTKLTVL"
  discrete_label: "Y"
- binder: "ABL-CD3-26 (antibody, V domains shown, Chimeric hybridoma mAb: human V, CH1, upper hinge; mouse middle hinge, CH2, CH3) VH: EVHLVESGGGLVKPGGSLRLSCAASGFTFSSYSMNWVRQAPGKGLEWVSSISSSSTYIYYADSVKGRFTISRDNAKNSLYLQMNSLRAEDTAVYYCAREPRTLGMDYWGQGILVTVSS VL: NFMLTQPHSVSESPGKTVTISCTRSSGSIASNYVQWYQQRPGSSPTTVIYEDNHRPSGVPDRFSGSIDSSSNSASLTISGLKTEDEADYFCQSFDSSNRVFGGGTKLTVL"
  discrete_label: "N"

# input for lookup
IN: Just wondering, is Response of ABL-CD3-49 (antibody, V domains shown, Chimeric hybridoma mAb: human V, CH1, upper hinge; mouse middle hinge, CH2, CH3) VH: EVQLVESGGGLVKPGGSLRLSCSASGFTFSTYTMNWVRQAPGKGLEWVSSISKSSSYIYYTDSVKGRFTISRDNAKNSLYLQMNSLRAEDTAVYYCARERRTLAFDIWGQGTMVTVSS VL: NFMLTQPHSVSESPGKTVTISCTRSSGSIASNYVQWYQQRPGSSPTTVIYEDNQRSSGVPDRFSGSIDSSSNSASLTISGLKTEDEADYYCQCYDRSNRVFGGGTKLTVL below 1?
OUT: Y
